target: human PI 3-kinase p120γ (Homo sapiens); construct: purchased Millipore Corporation; test: PI 3-kinase p120γ enzyme activity inhibition test; type: biochemical; conditions: ATP 10.0 μM, PIP2-PS 5.0 μM, 30° C., 2 hours; read-out: PI3Kγ (IC50 value class)
Sequence (P48736 whole entry): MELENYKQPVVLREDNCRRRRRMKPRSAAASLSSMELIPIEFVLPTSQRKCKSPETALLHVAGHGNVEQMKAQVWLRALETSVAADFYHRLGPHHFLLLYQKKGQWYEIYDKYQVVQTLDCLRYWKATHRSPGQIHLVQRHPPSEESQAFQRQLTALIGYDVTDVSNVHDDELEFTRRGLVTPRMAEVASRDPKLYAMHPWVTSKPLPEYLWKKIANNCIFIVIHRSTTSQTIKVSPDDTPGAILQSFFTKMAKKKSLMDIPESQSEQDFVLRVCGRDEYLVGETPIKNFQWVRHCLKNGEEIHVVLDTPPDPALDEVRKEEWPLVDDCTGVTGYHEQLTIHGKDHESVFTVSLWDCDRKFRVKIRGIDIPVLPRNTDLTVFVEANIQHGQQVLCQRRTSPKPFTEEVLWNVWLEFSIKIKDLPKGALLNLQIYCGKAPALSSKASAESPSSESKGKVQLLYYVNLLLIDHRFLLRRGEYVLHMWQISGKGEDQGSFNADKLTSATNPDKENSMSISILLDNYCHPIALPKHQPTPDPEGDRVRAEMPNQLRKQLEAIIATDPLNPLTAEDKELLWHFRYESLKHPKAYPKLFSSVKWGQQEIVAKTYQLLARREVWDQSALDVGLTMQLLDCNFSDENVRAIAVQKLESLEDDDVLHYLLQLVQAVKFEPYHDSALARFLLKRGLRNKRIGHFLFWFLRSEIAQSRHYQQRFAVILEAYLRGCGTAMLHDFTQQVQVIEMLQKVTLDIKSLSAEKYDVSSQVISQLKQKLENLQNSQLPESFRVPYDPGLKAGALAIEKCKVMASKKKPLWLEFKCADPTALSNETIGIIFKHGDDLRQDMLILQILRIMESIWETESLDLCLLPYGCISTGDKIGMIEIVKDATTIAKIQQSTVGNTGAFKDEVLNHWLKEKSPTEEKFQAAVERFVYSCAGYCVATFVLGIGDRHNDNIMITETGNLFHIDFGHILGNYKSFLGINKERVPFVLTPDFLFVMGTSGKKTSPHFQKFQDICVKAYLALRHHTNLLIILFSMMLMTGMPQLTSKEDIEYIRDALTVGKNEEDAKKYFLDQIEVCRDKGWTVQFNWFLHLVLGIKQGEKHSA
readout-name: IC50

Looking for the measured IC50 of Cc1nc(NC(=O)NCCC(=O)OC(C)C)sc1-c1nc(-c2cccnc2)no1 , can you help?
< 100 nM

Looking for the measured IC50 of Cc1nc(NC(=O)C(C)C)sc1-c1nc(-c2cccnc2)no1 , can you help?
100 to 500 nM

Looking for the measured IC50 of CC(=O)Nc1nc(C)c(-c2nc(-c3cccnc3C)no2)s1 , can you help?
< 100 nM

Looking for the measured IC50 of CC(=O)Nc1nc(C)c(-c2nc(C3CCOCC3)no2)s1 , can you help?
< 100 nM

Looking for the measured IC50 of Cc1nc(NC(=O)NCCC(=O)OC(C)(C)C)sc1-c1nc(CC(C)(C)CO)no1 , can you help?
< 100 nM

Looking for the measured IC50 of CC(=O)Nc1nc(C)c(-c2nc(CC(C)(C)C(N)=O)no2)s1 , can you help?
< 100 nM

Looking for the measured IC50 of Cc1nc(NC(=O)NCCCN(C)C)sc1-c1nc(-c2cccnc2)no1 , can you help?
< 100 nM

Looking for the measured IC50 of Cc1nc(NC(=O)NCC(=O)OC(C)(C)C)sc1-c1nc(-c2cccnc2)no1 , can you help?
< 100 nM

Looking for the measured IC50 of CC(=O)Nc1nc(C)c(-c2nc([C@H]3CCCO3)no2)s1 , can you help?
100 to 500 nM
